- assayed target: T1, RSV postfusion F (postF), subtype B (respiratory syncytial virus, subtype B)
- T1 construct: also called F ΔFP; Postfusion subtype B
- T1 sequence (P13843 26-109, chain 1 of 2): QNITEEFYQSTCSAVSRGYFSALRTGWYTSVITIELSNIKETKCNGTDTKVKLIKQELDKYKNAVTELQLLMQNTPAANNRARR
- T1 sequence (P13843 147-513, chain 2 of 2): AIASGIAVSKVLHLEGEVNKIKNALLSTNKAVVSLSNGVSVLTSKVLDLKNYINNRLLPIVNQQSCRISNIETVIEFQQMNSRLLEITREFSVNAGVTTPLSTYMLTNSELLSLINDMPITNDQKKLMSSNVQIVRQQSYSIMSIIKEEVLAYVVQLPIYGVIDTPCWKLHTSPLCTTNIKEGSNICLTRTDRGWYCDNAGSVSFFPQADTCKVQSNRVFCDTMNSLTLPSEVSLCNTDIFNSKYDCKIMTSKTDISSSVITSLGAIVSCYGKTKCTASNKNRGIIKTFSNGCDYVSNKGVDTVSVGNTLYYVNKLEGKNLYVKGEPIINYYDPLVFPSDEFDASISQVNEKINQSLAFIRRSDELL
- method notes: BLI, IgG
measured quantity: Kd (pM)
# value in pM; strip the unit string

Sample answers from the record:
ADI-21019 (antibody, V domains shown) VH: EVQLLESGGGLVRPGGSLRLSCAVSGFTFSGNALTWIRRAPGKGLEWVSTIGDSGGGSYYADSVKGRFTISRDNSKSTLYLQMNSLTAEDTAVYYCARDPYGDYRDYYGIDVWGQGTTVTVSS VL: EIVMTQSPLSLPVTPGEPASISCRSSQSLRHSNGYNYVDWYLQKPGQSPQLLIYLGSNRASGVPDRFRGSGSGTDFTLKISRVEAEDVGVYYCMQALQTPLTFGQGTKVEIK ... 168
ADI-20996 (antibody, V domains shown) VH: QVQLVESGPALVKPTQTLTLTCTFSGFSLTTRGMCVSWIRQPPGKALEWLARIDWDDDKYYSTSLKTRLTISKDTSKNQVVLTMTNMDPVDTATYYCARASTLTTAGYYLHYKDVWGNGTTVTVSS VL: DIRMTQSPSSLSASVGDRVTITCRASQSIGTYLNWFQQKPGKAPNLLIYAASILHSGVPSRFSGSGSGTDFTLTIRTLQPEDFATYYCQQSYPTVTFGQGTKVEIK ... 1120

### Prompt Indicate the recorded Kd value for this binder: ADI-14404 (antibody, V domains shown, also called Ab 70) VH: EVQLVESGGGLVQPGGSLRLSCAASGFTFSNFEMNWVRQAPGKGLEWVSYISSSGRIIYYADSVKGRFTISRDNARNSLYVQMNSLRVEDTAVYYCARAKAAAGHDLWGQGTLVTVSS VL: EIVLTQSPSTLSASVGDRVTITCRASQSISPWLAWYQQKPGKAPKLLIYRASSLESGVPSRFSGSGSGTEFTLTISSLQPDDFATYYCQHYNSYLYTFGQGTKVEIK
### Response 498
